Assay: Apparent permeability of the compound
Format: ADME
Details: not told
property-measured: Papp (×10⁻⁶ cm/s)
Report the value in ×10⁻⁶ cm/s with no unit label.

Report Papp for C[C@@]12CSC(=N1)c1csc(n1)CNC(=O)C[C@@H](/C=C/CCS)OC(=O)[C@H](CCCCNC(=O)O[C@@H]1CC/C=C/CCC1)NC2=O please.
3.23
